# TEST_TARGET: T1, TNFR1 (Homo sapiens, UniProt P19438)
# T1 chain: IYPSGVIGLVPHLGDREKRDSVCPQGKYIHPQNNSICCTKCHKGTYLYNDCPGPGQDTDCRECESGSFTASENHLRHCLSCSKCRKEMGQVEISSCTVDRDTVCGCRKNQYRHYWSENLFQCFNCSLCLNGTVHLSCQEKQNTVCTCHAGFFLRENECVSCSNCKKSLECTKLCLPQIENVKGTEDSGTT
# MEASUREMENT_DESCRIPTION: yeast display SC50
apparent Kd (screen): recorded values
Answer format reminder: number followed by unit.

Recorded apparent Kd (screen), per entry:
>>> experimental_result("E89Q (designed binder) SMEEEVEKAAKEYEKKKKEAIEKHLEKLKAKDKEAAERFLKELEEAAKEYAKDEAKTMSEEEAKRRAKKYKEKVLLSELSEEEQKEIKQAEEKLVRTILKYVEEAAK")
"1.05 nM"
>>> experimental_result("D32P (designed binder) SMEEEVEKAAKEYEKKKKEAIEKHLEKLKAKPKEAAERFLKELEEAAKEYAKDEAKTMSEEEAKRRAKKYKEKVLLSELSEEEQKEIKEAEEKLVRTILKYVEEAAK")
"8.56 nM"
>>> experimental_result("D32S (designed binder) SMEEEVEKAAKEYEKKKKEAIEKHLEKLKAKSKEAAERFLKELEEAAKEYAKDEAKTMSEEEAKRRAKKYKEKVLLSELSEEEQKEIKEAEEKLVRTILKYVEEAAK")
"0.446 nM"

# input for lookup
Task: Supply measured apparent Kd (screen) of Y50A (designed binder) SMEEEVEKAAKEYEKKKKEAIEKHLEKLKAKDKEAAERFLKELEEAAKEAAKDEAKTMSEEEAKRRAKKYKEKVLLSELSEEEQKEIKEAEEKLVRTILKYVEEAAK in your reply.
Result: 29.5 nM
